Test: IP-One incubation stability (cell-treated stimulation medium, LC-MS)
Assay type: in vitro ADME
Details: 2 μM, 60 min vs T0, 37° C., medium on CHO-K1 cells expressing 5-HT2A
Method: IP-One incubation. […] The percent of test compound remaining is calculated using the ratio of the peak areas of intact test compound at 60 min. over T0. The percent of psilocin release is calculated by comparing the peak area of psilocin at 60 min. […] Results are summarized in Table 1, (rel to % parent detected; and % psilocin detected at 1 hr).
So I've got a bunch of molecules here, and I need their % parent compound values.
Quick note: unit goes after the number.

Examples with answers:
>>> result("CN(C)CCc1c[nH]c2cccc(OC(=O)c3cccc(C(=O)Oc4cccc5[nH]cc(CCN(C)C)c45)c3)c12 [drawing 45]")
"52.1%"
>>> result("CN(C)CCc1c[nH]c2cccc(O)c12 [Psilocin, 4-hydroxy-N,N-dimethyltryptamine]")
"87.4%"
>>> result("CN(C)CCc1c[nH]c2cccc(OC(=O)C(C)(C)C(=O)Oc3cccc4[nH]cc(CCN(C)C)c34)c12 [drawing 43]")
"86.8%"
>>> result("CN(C)CCc1c[nH]c2cccc(OC(=O)CCC(=O)Oc3cccc4[nH]cc(CCN(C)C)c34)c12 [drawing 41]")
"61.7%"
>>> result("CN(C)CCc1c[nH]c2cccc(OC(=O)[C@H]3C[C@@H]3C(=O)Oc3cccc4[nH]cc(CCN(C)C)c34)c12 [drawing 46]")
"76.1%"

Batch: % parent compound for all items listed.
1. CN(C)CCc1c[nH]c2cccc(OC(=O)c3ccccc3F)c12 [drawing 47]
2. CN(C)CCc1c[nH]c2cccc(OC(=O)CCCC(=O)Oc3cccc4[nH]cc(CCN(C)C)c34)c12 [drawing 44]
3. CN(C)CCc1c[nH]c2cccc(OC(=O)c3ccc(Br)cc3)c12 [drawing 42]

Marked response:
1. 11.4%
2. 71.5%
3. 9.1%
